# Test system: isolated cat papillary muscle
# run.description: Positive inotropic effect: % change in contractile force in isolated cat papillary muscle
# study.conditions: Felis catus; 31.0 μg/ml; read-out: % change in Contractile Force (CF)
property.name: activation at 31 µg/mL (%)
Output spec: scalar in %, unitless text.

Some solved cases for reference:
>>> recorded_result("CN(C)c1ncnc2c1nc(SCc1ccccc1)n2[C@@H]1O[C@@H]2COP(=O)(O)O[C@H]2[C@H]1O")
18
>>> recorded_result("CCNc1ncnc2c1nc(SCc1ccccc1)n2[C@@H]1O[C@@H]2COP(=O)(O)O[C@H]2[C@H]1O")
28
>>> recorded_result("CCCCNc1ncnc2c1nc(Sc1ccc(Cl)cc1)n2[C@@H]1O[C@@H]2COP(=O)(O)O[C@H]2[C@H]1O")
62.3

Please respond with reported activation at 31 µg/mL (system isolated cat papillary muscle) for CCCCNc1ncnc2c1nc(SCc1ccccc1)n2[C@@H]1O[C@@H]2COP(=O)(O)O[C@H]2[C@H]1O .
24

Quote isolated cat papillary muscle activation at 31 µg/mL for entry O=P1(O)OC[C@H]2O[C@@H](n3c(Sc4ccc(Cl)cc4)nc4c(Nc5ccccc5)ncnc43)[C@H](O)[C@@H]2O1 .
50.2
